List of Classification values.
target: GST-DLG1 PDZ domains 1, 2 (Homo sapiens), Q12959; experiment: G' assay; also: key of the grades not given here

binder | Classification / A450 class
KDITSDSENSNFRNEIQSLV (modifications not checked) [CD95] | 2
TFAAGFNSTGLPHSTTRV (modifications not checked) [Neuroligin] | 2
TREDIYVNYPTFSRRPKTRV (modifications not checked) [DNAM-1] | 1
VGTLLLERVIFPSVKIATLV (modifications not checked) [AdenoE4 typ9] | 5
GGGGGSGGGGGSGIESVKI (modifications not checked) [GLUR2 (glutamate receptor 2-modified)] | 2
EDPKDRPSAAHIVEALETDV (modifications not checked) [PDZ-binding kinase (PBK)] | 1
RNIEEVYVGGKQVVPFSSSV (modifications not checked) [Nedasin (s-form)] | 3
